Below, each of the compounds is paired with its reported IC50 value.
study.system: LPA1 (Homo sapiens, UniProt Q92633)
Construct: ProLink (PK) beta-galactosidase enzyme-fragment tag
Sequence (Q92633 whole entry, the tested form may be a part): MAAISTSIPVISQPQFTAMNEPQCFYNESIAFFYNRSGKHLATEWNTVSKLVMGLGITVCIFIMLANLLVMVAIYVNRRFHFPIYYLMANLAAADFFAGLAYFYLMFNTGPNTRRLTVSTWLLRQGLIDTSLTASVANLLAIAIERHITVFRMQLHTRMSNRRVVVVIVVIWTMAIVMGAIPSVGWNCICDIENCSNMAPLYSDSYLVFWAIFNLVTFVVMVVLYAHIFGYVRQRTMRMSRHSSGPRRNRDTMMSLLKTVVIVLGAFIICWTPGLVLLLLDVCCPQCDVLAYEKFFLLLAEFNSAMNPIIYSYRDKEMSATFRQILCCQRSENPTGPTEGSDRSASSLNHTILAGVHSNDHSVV
test.name: LPA1 calcium flux assay (LPA1 functional antagonist assay)
test.parameters: PathHunter CHO-K1 EDG2 β-Arrestin cell line; calcium indicator dye; stimulated with EC80 concentration of LPA; FLIPR Tetra

{"compound": "CCc1nc(-c2nnn(C)c2Cn2ccc(C#CC3CC3)cc2=O)ccc1N1C[C@@H](CC(=O)O)CC(F)(F)C1 [Example 20]", "IC50": "> 5000 nM"}
{"compound": "CCc1nc(-c2cnn(C)c2Cn2nncc2CC2CC2)ncc1N1C[C@@H](CC(=O)O)CC(F)(F)C1 [Example 134]", "IC50": "100 to 500 nM"}

# query: IC50 of entry CCCc1ccc(=O)n(Cc2c(-c3ccc(N4CCO[C@H](CC(=O)O)C4)c(CC)n3)nnn2C)c1 [Example 172]
500 to 5000 nM

# query: IC50 of entry Cc1nc(-c2cnn(C)c2COc2cc(-n3cccn3)ncn2)ccc1N1C[C@@H](CC(=O)O)CC(F)(F)C1 [Example 89]
< 100 nM

# query: IC50 of entry CCc1nc(-c2cnn(C)c2Cn2cc(C3CC3)ccc2=O)ncc1N1C[C@@H](CC(=O)O)CC(F)(F)C1 [Example 39]
500 to 5000 nM

# query: IC50 of entry CCc1nc(-c2nnn(C)c2Cn2ccc(CC3CC3)cc2=O)ccc1N1C[C@@H](CC(=O)O)CC(F)(F)C1 [Example 9]
> 5000 nM

# query: IC50 of entry CCc1nc(-c2nnn(C)c2Cn2cc(C3CC3)ccc2=O)ccc1N1C[C@@H](CC(=O)O)CC(F)(F)C1 [Example 15]
< 100 nM

---

study.system: LPA1 (Homo sapiens, UniProt Q92633)
Construct: ProLink (PK) beta-galactosidase enzyme-fragment tag
test.name: LPA1 calcium flux assay (LPA1 functional antagonist assay)
test.parameters: PathHunter CHO-K1 EDG2 β-Arrestin cell line; calcium indicator dye; stimulated with EC80 concentration of LPA; FLIPR Tetra
pIC50: −log10 of the molar value.
Below, each of the molecules is paired with its reported pIC50 value.

# query: pIC50 of entry CCCc1ccc(=O)n(Cc2c(-c3ccc(N4CCC[C@H](CC(=O)O)C4)c(CC)n3)cnn2C)c1
5.30 to 6.30

---

study.system: LPA1 (Homo sapiens)
Construct: ProLink (PK) beta-galactosidase enzyme-fragment tag
test.name: LPA1 calcium flux assay (LPA1 functional antagonist assay)
test.parameters: PathHunter CHO-K1 EDG2 β-Arrestin cell line; calcium indicator dye; stimulated with EC80 concentration of LPA; FLIPR Tetra
pIC50: −log10 of the molar value.
Below, each of the compounds is paired with its reported pIC50 value.

Please review the following examples before continuing.
{"compound": "CCc1nc(-c2nnn(C)c2COc2nccc(C3CCC3)n2)ccc1CN1CC(C(=O)O)CC(F)(F)C1 (single isomer, unassigned) [Example 153]", "pIC50": "5.30 to 6.30"}
{"compound": "CCCc1ccc(=O)n(Cc2c(-c3ccc(N4C[C@@H](CC(=O)O)CC(F)(F)C4)c(CC)n3)cnn2C)c1", "pIC50": "6.30 to 7.00"}
{"compound": "CCc1nc(-c2nnn(C)c2COc2nc(C3CCC3)nc(N3CCOCC3)n2)ccc1N1CCC[C@H](CC(=O)O)C1", "pIC50": "6.30 to 7.00"}
{"compound": "CCc1nc(-c2nnn(C)c2CNc2nccc(C3CC3)n2)ccc1CN1CC(C(=O)O)CC(F)(F)C1 (stereo not shown)", "pIC50": "5.30 to 6.30"}
{"compound": "CCc1nc(-c2nnn(C)c2Cn2nc(CC3CC3)n(C)c2=O)ccc1N1C[C@@H](CC(=O)O)CC(F)(F)C1", "pIC50": "5.30 to 6.30"}

# query: pIC50 of entry Cc1nc(-c2nnn(C)c2COc2nccc(C3CCC3)n2)ccc1CN1CC(C(=O)O)CC(F)(F)C1 (single isomer, unassigned) [Example 148]
> 7.00

# query: pIC50 of entry CCc1nc(-c2nnn(C)c2COc2nccc(-n3cccn3)n2)ccc1N1CCC[C@H](CC(=O)O)C1
> 7.00

---

study.system: LPA1 (Homo sapiens)
Construct: ProLink (PK) beta-galactosidase enzyme-fragment tag
test.name: LPA1 calcium flux assay (LPA1 functional antagonist assay)
test.parameters: PathHunter CHO-K1 EDG2 β-Arrestin cell line; calcium indicator dye; stimulated with EC80 concentration of LPA; FLIPR Tetra
Below, each of the molecules is paired with its reported IC50 value.

Please review the following examples before continuing.
{"molecule": "Cc1nc(-c2nnn(C)c2COc2nccc(-n3cccn3)n2)ccc1N1CCC[C@H](CC(=O)O)C1", "study.system": "LPA1 (Homo sapiens)", "endpoint.result": "< 100 nM"}
{"molecule": "CCc1nc(-c2nnn(C)c2COc2nccc(C3CCC3)n2)ccc1N1CCCC(CC(=O)O)C1=O (single isomer, unassigned) [Example 93]", "study.system": "LPA1 (Homo sapiens)", "endpoint.result": "100 to 500 nM"}
{"molecule": "CCCOc1ccc(=O)n(Cc2c(-c3ccc(N4C[C@@H](CC(=O)O)CC(F)(F)C4)c(CC)n3)nnn2C)c1", "study.system": "LPA1 (Homo sapiens)", "endpoint.result": "100 to 500 nM"}

Let's switch to this molecule now.
# query: IC50 of entry CCc1nc(-c2nnn(C)c2Cn2cc(C)c(C3CC3)cc2=O)ccc1N1C[C@@H](CC(=O)O)CC(F)(F)C1
> 5000 nM

---

study.system: LPA1 (Homo sapiens, UniProt Q92633)
Construct: ProLink (PK) beta-galactosidase enzyme-fragment tag
test.name: LPA1 calcium flux assay (LPA1 functional antagonist assay)
test.parameters: PathHunter CHO-K1 EDG2 β-Arrestin cell line; calcium indicator dye; stimulated with EC80 concentration of LPA; FLIPR Tetra
readout: IC50

Please review the following examples before continuing.
{"compound": "CCc1nc(-c2cnn(C)c2Cn2cc(CC3CC3)nn2)ncc1N1C[C@@H](CC(=O)O)CC(F)(F)C1 [Example 135]", "readout": "IC50", "endpoint.result": "> 5000 nM"}
{"compound": "CCCc1ccc(=O)n(Cc2c(-c3ccc(N4C[C@H](CC(=O)O)CC(F)(F)C4)c(CC)n3)nnn2C)c1 [Example 7]", "readout": "IC50", "endpoint.result": "500 to 5000 nM"}
{"compound": "Cc1nc(-c2nnn(C)c2COc2cc(-n3cccn3)ccn2)ccc1N1CCC[C@H](CC(=O)O)C1 [Example 103]", "readout": "IC50", "endpoint.result": "< 100 nM"}

# query: IC50 of entry CCc1nc(-c2nnn(C)c2COc2cnn(CC3CC3)n2)ccc1N1C[C@@H](CC(=O)O)CC(F)(F)C1 [Example 127]
100 to 500 nM

# query: IC50 of entry CCCc1ccc(=O)n(Cc2c(-c3ccc(N4CCC[C@H](CC(=O)O)C4)c(CC)n3)nnn2C)c1 [Example 22]
100 to 500 nM

# query: IC50 of entry CCc1nc(-c2nnn(C)c2CNc2noc(C3CC3)n2)ccc1N1CC(CC(=O)O)CC(F)(F)C1 (stereo in doubt) [Example 115]
> 5000 nM

# query: IC50 of entry CCc1nc(-c2nnn(C)c2Cn2cc(CC3CC3)ccc2=O)ccc1N1C[C@@H](CC(=O)O)CC(F)(F)C1 [Example 13]
< 100 nM

---

study.system: LPA1 (Homo sapiens, UniProt Q92633)
Construct: ProLink (PK) beta-galactosidase enzyme-fragment tag
test.name: LPA1 calcium flux assay (LPA1 functional antagonist assay)
test.parameters: PathHunter CHO-K1 EDG2 β-Arrestin cell line; calcium indicator dye; stimulated with EC80 concentration of LPA; FLIPR Tetra
readout: IC50

Please review the following examples before continuing.
{"compound": "Cc1nc(-c2nnn(C)c2COc2nccc(C(C)C)n2)ccc1N1C[C@@H](CC(=O)O)CC(F)(F)C1 [Example 77]", "IC50": "100 to 500 nM"}
{"compound": "CCc1nc(-c2nnn(C)c2Cn2nnc(CC3CC3)n2)ccc1N1C[C@@H](CC(=O)O)CC(F)(F)C1 [Example 137]", "IC50": "100 to 500 nM"}
{"compound": "CCc1nc(-c2nnn(C)c2COc2nccc(C3CCC3)n2)ccc1N1CC(CC(=O)O)CCC1=O (single isomer, unassigned) [Example 91]", "IC50": "> 5000 nM"}
{"compound": "CCCc1ccc(=O)n(Cc2c(-c3ccc(N4C[C@@H](F)C[C@H](CC(=O)O)C4)c(CC)n3)nnn2C)c1 (single isomer, unassigned) [Example 45]", "IC50": "100 to 500 nM"}
{"compound": "CCc1nc(-c2nnn(C)c2Cn2cc(-n3cccn3)ccc2=O)ccc1N1C[C@@H](CC(=O)O)CC(F)(F)C1 [Example 28]", "IC50": "500 to 5000 nM"}

Let's switch to this compound now.
Field: IC50 (LPA1 (Homo sapiens, UniProt Q92633)). Entry: CCCc1ccc(=O)n(Cc2c(-c3ccc(N4C[C@@H](CC(=O)O)CC(F)(F)C4)c(C)n3)nnn2C)c1 [Example 4]
100 to 500 nM
